All values here come from paper PMC9482650.

- measured-target: GOPC, Q9HD26
- experimental-details: holdup assay
- Set-up: key: below the threshold = too weak to quantify, mostly under pKd 3.1 to 4
- condition-set: plain residues with an end cap or a label only (N-terminal biotin on a linker: ado-ado)
recorded-metric: pKd
Number only, please.

# pKd lookup, item LGRSTPQSEV [DGKH, Q86XP1]
3.87

Given FNSYSLTGYV [CLDN2, P57739] , state its recorded pKd.
3.66

Which pKd reading was recorded for the binder LPAHHNATRL [SLC34A1, Q06495;Q06495-1] ?
4.53

Fill blank: measured pKd of the binder QSARLWETSI [ADAM22, Q9P0K1] is ____.
4.42
